Hey, just so you know, these numbers are from patent US20080267974A1.

Assignment: determine reported Affinity for the given binders.
# ASSAY_TARGET: tumor necrosis factor alpha (TNFα) (human, UniProt P01375 77-233)
# Sequence (P01375 77-233 limits assumed): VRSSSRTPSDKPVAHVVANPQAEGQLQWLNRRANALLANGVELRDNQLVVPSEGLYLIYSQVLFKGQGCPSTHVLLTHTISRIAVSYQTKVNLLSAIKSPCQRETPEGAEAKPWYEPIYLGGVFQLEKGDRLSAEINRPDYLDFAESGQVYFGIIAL
# TEST_METHOD_NOTES: affinity by IC50 ELISA (so named in paragraph 380)
Just the number please, in nM, no unit attached.

Complete the entry with Affinity for MAb 1780 (antibody, V domains shown, IgG1/kappa, CHO; also called H1685/L332) VH: EVQLVESGGGLIQPGGSLRLSCAVSGLNVSRDYMSWVRQAPGKGLEWISVIYRGGATMYADSVKGRFTISRDTSKNTVFLQMSRLKVADTAVYYCARNYYGSTLDYWGQGTLVTVSS VL: EIVLTQSPVTLSVPPGERASLSCRASQNIYTAVAWYQQKPGQAPRLLIYGASTRATGIPARFSGGGSGTDYTLTISSLESEDFAVYHCQQWHSWPLTFGGGTKLEIK 0.23

Complete the entry with Affinity for MAb 1895 (antibody, V domains shown, IgG1/kappa, CHO; also called H1596/L459) VH: EVQLVESGGGLIQPGGSLRLSCAVSGLNVSRDYMSWVRQAPGKGLEWISVIYRGGATMYADSVKGRFTISRDTSKNTVFLQMSRLKVADTAVYYCARNYYGSTHDYWGQGTLVTVSS VL: EIVLTQSPVTLSVPPGERASLSCRASQNIYTAVAWYQQKPGQAPRLLIYNASTRATGIPARFSGGGSGTDYTLTISSLESEDFAVYHCQQWHSWPLTFGGGTKLEIK 0.09

Complete the entry with Affinity for MAb 1896 (antibody, V domains shown, IgG1/kappa, CHO; also called H1685/L459) VH: EVQLVESGGGLIQPGGSLRLSCAVSGLNVSRDYMSWVRQAPGKGLEWISVIYRGGATMYADSVKGRFTISRDTSKNTVFLQMSRLKVADTAVYYCARNYYGSTLDYWGQGTLVTVSS VL: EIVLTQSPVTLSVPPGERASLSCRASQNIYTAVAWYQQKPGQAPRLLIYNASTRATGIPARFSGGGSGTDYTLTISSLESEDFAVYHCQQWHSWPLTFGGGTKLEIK 0.08

Complete the entry with Affinity for MAb 1371 (antibody, V domains shown, IgG1/kappa, CHO; also called H1596/L332) VH: EVQLVESGGGLIQPGGSLRLSCAVSGLNVSRDYMSWVRQAPGKGLEWISVIYRGGATMYADSVKGRFTISRDTSKNTVFLQMSRLKVADTAVYYCARNYYGSTHDYWGQGTLVTVSS VL: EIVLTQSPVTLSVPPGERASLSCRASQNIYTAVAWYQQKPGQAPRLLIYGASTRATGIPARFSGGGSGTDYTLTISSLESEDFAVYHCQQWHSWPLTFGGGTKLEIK 0.2
